TEST SYSTEM: Tryptase (Homo sapiens, UniProt Q9BZJ3+Q15661+Q9NRR2)
ASSAY METHOD TEXT: Inhibitory activity of compound against human tryptase was determined
Assay type: protein assay
Reported IC50 values for the following compounds.
// units = nM; emit number, no label

Here are 3 compounds together with their reported answers.
>>> recorded_value("CC(C)C(OC(=O)N1CCN(C(=O)N2C(=O)[C@H](CCCCN=C(N)N)[C@H]2C(=O)O)CC1)C(C)C (single isomer, unassigned)")
39
>>> recorded_value("CC(C)C(OC(=O)N1CCN(C(=O)N2C(=O)[C@H](Cc3ccnc(N)c3)[C@H]2C(=O)O)CC1)C(C)C")
61
>>> recorded_value("O=C(O)[C@@H]1[C@@H](CC2CCNCC2)C(=O)N1C(=O)Nc1ccccc1")
147

Task item: Param readout= IC50; system= Tryptase (Homo sapiens, UniProt Q9BZJ3+Q15661+Q9NRR2); entry= N=C(N)N1CCC(C[C@H]2C(=O)N(C(=O)Nc3ccccc3)[C@@H]2C(=O)O)CC1 ; returns value.
Reply: 515

###

Dear all, this message contains IC50 results, target or system Tissue-type plasminogen activator (Homo sapiens, UniProt P00750).

>>> recorded_value("CC(C)C(OC(=O)N1CCN(C(=O)N2C(=O)[C@H](CC3CCNCC3)[C@H]2C(=O)O)CC1)C(C)C")
"> 33 µM"

# context switch: different compound, same IC50
Task item: Tissue-type plasminogen activator (Homo sapiens, UniProt P00750) / IC50 / O=C(O)[C@@H]1[C@@H](CCC2CCCNC2)C(=O)N1C(=O)N1CCN(C(=O)CCCCCc2ccccc2)CC1 (some centres not stated) : value?
Reply: > 33 µM

###

TEST SYSTEM: Tryptase (Homo sapiens, UniProt Q9BZJ3+Q15661+Q9NRR2)
ASSAY METHOD TEXT: Inhibitory activity of compound against human tryptase was determined
Type: protein assay
Parameter IC50: see the listing below.
The answer is to be given in µM; state only the numeric part.

Take a look at these entries with their results.
>>> recorded_value("CC(C)C(OC(=O)N1CCN(C(=O)N2C(=O)[C@H](Cc3cccc(CN)c3)[C@H]2C(=O)O)CC1)C(C)C")
0.019
>>> recorded_value("CC(C)C(OC(=O)N1CCN(C(=O)N2C(=O)[C@H](CCCCN)[C@H]2C(=O)O)CC1)C(C)C")
0.007
>>> recorded_value("CC(C)C(OC(=O)N1CCN(C(=O)N2C(=O)[C@H](CC3CCNCC3)[C@H]2C(=O)O)CC1)C(C)C")
0.029

Task item: Requested field: IC50. Item: CC(C)C(OC(=O)N1CCN(C(=O)N2C(=O)[C@H](CCCCCCN)[C@H]2C(=O)O)CC1)C(C)C
Reply: 0.032

Task item: Give its IC50 value. Item: CC(C)C(OC(=O)N1CCN(C(=O)N2C(=O)[C@H](Cc3ccc(CN)cc3)[C@H]2C(=O)O)CC1)C(C)C
Reply: 0.211

Task item: What does the record list as IC50 for CC(C)C(OC(=O)N1CCN(C(=O)N2C(=O)[C@H](CC3CCCNC3)[C@H]2C(=O)O)CC1)C(C)C (stereo partly specified) ?
Reply: 17.899

###

Quick note: these are IC50 numbers for system: UniProt P00742
Sequence (P00742 41-179 limits assumed): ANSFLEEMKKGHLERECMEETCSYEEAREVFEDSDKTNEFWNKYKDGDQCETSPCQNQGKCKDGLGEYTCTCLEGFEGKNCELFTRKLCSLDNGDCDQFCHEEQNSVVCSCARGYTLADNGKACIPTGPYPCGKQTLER
Sequence (P00742 235-488 limits assumed): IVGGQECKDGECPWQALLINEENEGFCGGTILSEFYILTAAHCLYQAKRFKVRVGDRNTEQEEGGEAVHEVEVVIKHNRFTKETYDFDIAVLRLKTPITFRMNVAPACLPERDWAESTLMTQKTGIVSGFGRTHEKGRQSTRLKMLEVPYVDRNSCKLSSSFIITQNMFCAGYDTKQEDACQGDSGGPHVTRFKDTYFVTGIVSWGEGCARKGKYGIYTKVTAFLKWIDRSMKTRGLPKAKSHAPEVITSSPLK

>>> recorded_value("CC(C)C(OC(=O)N1CCN(C(=O)N2C(=O)[C@H](CC3CCNCC3)[C@H]2C(=O)O)CC1)C(C)C")
"> 33 µM"

Task item: Query for UniProt P00742: what IC50 does the record show for O=C(O)[C@@H]1[C@@H](CCC2CCCNC2)C(=O)N1C(=O)N1CCN(C(=O)CCCCCc2ccccc2)CC1 (some centres not stated) ?
Reply: > 33 µM

###

ASSAY METHOD TEXT: Half-life of compound was determined at pH 7
Format: ADME
PROPERTY LABEL: half-life

Task item: # half-life lookup, item O=C(O)[C@@H]1[C@@H](CC2CCNCC2)C(=O)N1C(=O)N1CCN(C(=O)CCCCCc2ccccc2)CC1
Reply: > 48 h

###

TEST SYSTEM: Tryptase (Homo sapiens, UniProt Q9BZJ3+Q15661+Q9NRR2)
ASSAY METHOD TEXT: Inhibitory activity of compound against human tryptase was determined
Type: protein assay
PROPERTY LABEL: IC50 (nM)
Numbers only here, please. The scale is nM.

>>> recorded_value("O=C(O)[C@@H]1[C@@H](CCC2CCCNC2)C(=O)N1C(=O)N1CCN(C(=O)CCCCCc2ccccc2)CC1 (stereo not given in full)")
1.8
>>> recorded_value("CC(C)C(OC(=O)N1CCN(C(=O)N2C(=O)[C@H](CCCCCN)[C@H]2C(=O)O)CC1)C(C)C")
34
>>> recorded_value("O=C(O)[C@@H]1[C@@H](CC2CCNCC2)C(=O)N1C(=O)N1CCN(C(=O)CCCCCc2ccccc2)CC1")
1
>>> recorded_value("CC(C)C(OC(=O)N1CCN(C(=O)N2C(=O)[C@H](CCC3CCNCC3)[C@H]2C(=O)O)CC1)C(C)C")
1214
>>> recorded_value("CC(C)C(OC(=O)N1CCN(C(=O)N2C(=O)[C@H](Cc3ccc(N)nc3)[C@H]2C(=O)O)CC1)C(C)C")
1053

Let's switch to this compound now.
Task item: # input compound: CC(C)C(OC(=O)N1CCN(C(=O)N2C(=O)[C@H](CC3CCNC3)[C@H]2C(=O)O)CC1)C(C)C (stereo not given in full) ; wanted: its IC50
Reply: 2605

###

TEST SYSTEM: Tryptase (Homo sapiens, UniProt Q9BZJ3+Q15661+Q9NRR2)
ASSAY METHOD TEXT: Inhibitory activity of compound against human tryptase was determined
Type: protein assay
Listed here are compounds together with their documented IC50.

Use these answered entries as a reference point.
>>> recorded_value("N=C(N)N1CCC[C@H](C[C@H]2C(=O)N(C(=O)N3CCN(C(=O)CCCCCc4ccccc4)CC3)[C@@H]2C(=O)O)C1")
"< 1.7 nM"
>>> recorded_value("CC(C)C(OC(=O)N1CCN(C(=O)N2C(=O)[C@H](CCCN)[C@H]2C(=O)O)CC1)C(C)C")
"> 33000 nM"
>>> recorded_value("N=C(N)N1CCC[C@@H](C[C@H]2C(=O)N(C(=O)N3CCN(C(=O)CCCCCc4ccccc4)CC3)[C@@H]2C(=O)O)C1")
"< 1.7 nM"

Now consider the entry below.
Task item: Which measured IC50 value corresponds to NCCCC[C@H]1C(=O)N(C(=O)N2CCN(C(=O)CCCCCc3ccccc3)CC2)[C@@H]1C(=O)O ?
Reply: < 1.7 nM
